Recorded values, source patent US20240101708A1.

# target.or.system: T1, recombinant human ZNRF3 extracellular domain (human, UniProt Q9ULT6 56-219)
# T1 construct: extracellular domain; also called huZNRF3; human ZNRF3 ECD
# T1 sequence (looked up): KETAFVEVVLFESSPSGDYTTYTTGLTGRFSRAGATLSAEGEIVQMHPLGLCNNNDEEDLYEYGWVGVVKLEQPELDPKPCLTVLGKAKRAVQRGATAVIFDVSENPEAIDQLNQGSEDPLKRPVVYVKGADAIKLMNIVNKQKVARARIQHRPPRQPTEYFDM
# measurement.description: SPR Biacore 8K; antibody captured on Protein A; ZNRF3 ECD analyte; 25 C
assay.readout: pKd
Answers are plain numbers, as −log10 of the molar value.

Some solved cases for reference:
ZNRF3-117 (antibody, V domains shown, Rat clone; VH/VL only) VH: EIQLQESGPGLVKPSQSLSLTCSVTGYTITSDYDWSWIRKFPGNKMEWMGYINYSGSTNYNPSLKSRISFTRDTSKNQFFLQLNSITTDDTATYYCARYGPYYGFSDWYFDFWGPGTMVTVSS VL: DVQMTQSPSYLAASPGESVSISCKASQSISNYLAWYQQKPGKTYRLLIYSGSTLQSGTPSRFSGSGSGTDFTLTIRSLEPEDFGLYYCQQYYEKPLTFGSGTKLEIK
9.70
ZNRF3-101 (antibody, V domains shown, Rat clone; VH/VL only) VH: QVQLKESGPGLVQPTQTLSLTCTVSGFSLTSSTVSWVRQPPGKGLEWIAAISSAENTYYNSGLKSRLSISRDTSKSQVFLKMNSLQTEDTAMYFCAGGRILETLFDSWGQGVMVTVSS VL: DIVLTQSPALAVSLGQRATISCKTNQNVDFYGKTYMHWYQQKRGQQPKLLIYLASNLASGIPARFSGRGSGTDFTLTIDPVATDDTATYYCQQTRSLPPTFGAGTKLELK
10.15

Pending binder:
Please look up its pKd: ZNRF3-332 (antibody, V domains shown, Rabbit clone; VH/VL only) VH: QSLEESGGGLVQPEGSLTLTCTASGIDFSTRNYMCWVRQAPGKGLEWVGCIYTSSGGTYYASWVNGRFTISKTSSTTVTLRMTSLTAADTATYFCARGGYVGYGYATYFNLWGPGTLVAVSS VL: DVVMTQTPASVSEPVGGTVTIKCQASQSISSYLSWYQQKPGQPPKLLIYYVSNLESGVPSRFKGSGSGTEFTLTISDLECADAATYYCQNYYSSSSGWAFGGGTEVVVK
8.80
